Where these numbers come from: the supplement of paper PMC10567573

B1: ZNF263 (parent)
chain: EKPYKCPECGEIFAHSSNLLRHQR

Variants of: B1
Assay: protein stability index of a GFP-peptide fusion (GPS, HEK-293T) (PSI 1-6); higher = more stable;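 further: lentivirally expressed fusions sorted by FACS into six bins by GFP to DsRed ratio, PSI derived from sequencing read proportions per bin multiplied by bin number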
Settings: c terminus: a fixed tail appended
# maps each entry to its protein stability index
measured metric: protein stability index

    mutation_spec  reported_measurement
 0           R21E                  4.38
 1           L20M                   2.6
 2           S17W                  2.24
 3            Y4C                  2.48
 4           L20H                  3.79
 5            K2F                  3.99
 6           L19H                  3.63
 7            P3E                  2.91
 8           R24T                  3.24
 9           L20G                  2.29
10           A14C                  2.37
11            E8V                  2.27
12           N18F                  2.54
13           H15I                   1.7
14           R21L                  2.82
15           H22G                  1.25
16            Y4F                  2.15
17           A14V                  3.17
18            Y4S                  2.52
19            P7F                  2.37
20            P3W                  2.83
21           N18H                  4.44
22            E1Y                  2.06
23            P7R                  1.62
24           Q23D                  1.82
25           N18I                  2.37
26           A14P                   2.7
27           E11R                  3.09
28           R21D                  4.24
29            P7M                  2.49
30           E11G                  1.98
31           L19I                   1.8
32            E8H                  3.07
33            E1P                   2.2
34           H15C                  3.26
35            K5H                  2.38
36           R21M                  3.58
37           S17C                  4.32
38           L20D                  3.29
39           R24M                   3.6
40            P7I                  2.28
41            E8N                   2.1
42            C6H                  2.71
43            P3K                  1.52
44           Q23Y                  2.07
45           H15F                  2.94
46           S16K                  1.71
47            C6A                  3.37
48           H15A                   2.3
49            Y4V                  3.51
50            C9L                  2.93
51           A14M                  2.29
52           L20I                  2.04
53           N18L                  2.67
54           L20T                  2.66
55           E11K                     3
56           H15Q                  3.15
57           S17Q                  1.98
58            E1M                  2.37
59            K5F                  2.66
60            Y4T                  2.91
61            K2P                  3.37
62           F13N                  1.51
63           Q23G                  1.82
64            C6Q                   3.6
65           R21C                  3.98
66           H15G                  2.55
67            C9I                  2.72
68           E11A                  2.03
69            C6L                  3.19
70            P3D                  3.11
71           H15E                   3.3
72           Q23W                  2.42
73           R21H                  3.35
74            K5V                  2.62
75           R21T                  4.27
76            Y4L                  2.47
77           G10A                  1.88
78           H15W                  2.65
79           H15N                  3.62
80           S17D                  3.33
81            P7K                  1.49
82           R21S                  2.89
83           H22S                  1.89
84            Y4G                  2.85
85           R21G                  2.01
86            P3F                  2.69
87           R21I                  3.75
88            C6V                  3.35
89           F13I                   2.8
90            E8F                     2
